All values here come from ChEMBL document CHEMBL4373725.

measured target: Diacylglycerol lipase-alpha (Mus musculus)
Sequence (Q6WQJ1 whole entry): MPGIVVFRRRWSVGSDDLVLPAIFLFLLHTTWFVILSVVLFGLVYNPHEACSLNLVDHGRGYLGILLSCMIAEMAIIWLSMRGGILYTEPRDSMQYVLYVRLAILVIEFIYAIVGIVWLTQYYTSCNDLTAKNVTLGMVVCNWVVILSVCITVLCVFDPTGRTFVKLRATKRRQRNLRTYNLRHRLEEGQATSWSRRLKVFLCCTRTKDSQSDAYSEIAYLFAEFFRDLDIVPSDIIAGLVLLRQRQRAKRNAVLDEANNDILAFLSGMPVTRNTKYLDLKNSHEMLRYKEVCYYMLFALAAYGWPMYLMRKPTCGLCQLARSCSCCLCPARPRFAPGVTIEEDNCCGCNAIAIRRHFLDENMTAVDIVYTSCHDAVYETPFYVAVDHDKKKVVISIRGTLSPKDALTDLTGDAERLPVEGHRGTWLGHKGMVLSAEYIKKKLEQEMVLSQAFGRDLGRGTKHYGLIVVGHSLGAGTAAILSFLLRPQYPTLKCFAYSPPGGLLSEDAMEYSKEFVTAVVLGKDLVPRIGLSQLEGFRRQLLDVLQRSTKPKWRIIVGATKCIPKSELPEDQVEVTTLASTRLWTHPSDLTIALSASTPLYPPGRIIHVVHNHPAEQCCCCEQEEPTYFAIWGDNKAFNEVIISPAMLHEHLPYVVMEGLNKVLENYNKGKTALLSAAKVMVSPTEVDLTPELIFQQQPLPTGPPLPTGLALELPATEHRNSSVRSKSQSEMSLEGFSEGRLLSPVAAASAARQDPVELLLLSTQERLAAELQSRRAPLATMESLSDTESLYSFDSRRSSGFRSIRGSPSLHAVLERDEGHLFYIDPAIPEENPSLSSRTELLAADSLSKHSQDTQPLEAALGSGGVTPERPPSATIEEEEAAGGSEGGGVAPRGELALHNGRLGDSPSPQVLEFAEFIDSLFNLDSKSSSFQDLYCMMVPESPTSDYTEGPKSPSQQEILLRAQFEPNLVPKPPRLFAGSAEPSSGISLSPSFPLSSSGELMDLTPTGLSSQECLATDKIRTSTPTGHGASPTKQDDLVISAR
Form field: pKi (one value per entry).
Recall that pKi is obtained by taking minus log10 of the concentration measured in molar.

{"columns": ["compound", "pKi"],
 "data": [
  ["O=C(N1CCCCC1Cc1ccccc1)n1cc(-c2ccc(-c3ccccc3)cc2)nn1 (configuration not stated)", 9.46]
]}

Turning to the following compound.
Request: // lookup pKi | system=Diacylglycerol lipase-alpha (Mus musculus) | key= `O=C(N1CCCC[C@@H]1Cc1ccccc1)n1cnc(C(O)(c2ccc(F)cc2)c2ccc(F)cc2)n1`
Result: 4.86

---

measured target: Diacylglycerol lipase-alpha (Mus musculus, UniProt Q6WQJ1)
experiment description: Inhibition of mouse DAGL-alpha expressed in HEK293T cell membranes pre-incubated for 20 mins before PNP-butyrate substrate addition and measured after 30 mins by surrogate substrate assay
Format: cell-based
condition label: read-out: IC50
property name: pIC50
A value of pIC50 is the negative decimal logarithm of a concentration given in moles per litre.

{"columns": ["chemical smiles", "pIC50"],
 "data": [
  ["O=C(N1CCCC[C@@H]1Cc1ccccc1)n1ccc(C(O)(c2ccc(F)cc2)c2ccc(F)cc2)n1", 6.68]
]}

Here is the next item to consider.
Request: Identify the measured pIC50 of `O=C(N1CCCC[C@@H]1Cc1ccccc1)n1cnc(C(O)(c2ccc(F)cc2)c2ccc(F)cc2)n1` for Diacylglycerol lipase-alpha (Mus musculus, UniProt Q6WQJ1).
Result: 5.47

---

# key: entry, value: Kinact
measured target: Diacylglycerol lipase-alpha (Mus musculus) (UniProt Q6WQJ1)
Sequence (whole entry): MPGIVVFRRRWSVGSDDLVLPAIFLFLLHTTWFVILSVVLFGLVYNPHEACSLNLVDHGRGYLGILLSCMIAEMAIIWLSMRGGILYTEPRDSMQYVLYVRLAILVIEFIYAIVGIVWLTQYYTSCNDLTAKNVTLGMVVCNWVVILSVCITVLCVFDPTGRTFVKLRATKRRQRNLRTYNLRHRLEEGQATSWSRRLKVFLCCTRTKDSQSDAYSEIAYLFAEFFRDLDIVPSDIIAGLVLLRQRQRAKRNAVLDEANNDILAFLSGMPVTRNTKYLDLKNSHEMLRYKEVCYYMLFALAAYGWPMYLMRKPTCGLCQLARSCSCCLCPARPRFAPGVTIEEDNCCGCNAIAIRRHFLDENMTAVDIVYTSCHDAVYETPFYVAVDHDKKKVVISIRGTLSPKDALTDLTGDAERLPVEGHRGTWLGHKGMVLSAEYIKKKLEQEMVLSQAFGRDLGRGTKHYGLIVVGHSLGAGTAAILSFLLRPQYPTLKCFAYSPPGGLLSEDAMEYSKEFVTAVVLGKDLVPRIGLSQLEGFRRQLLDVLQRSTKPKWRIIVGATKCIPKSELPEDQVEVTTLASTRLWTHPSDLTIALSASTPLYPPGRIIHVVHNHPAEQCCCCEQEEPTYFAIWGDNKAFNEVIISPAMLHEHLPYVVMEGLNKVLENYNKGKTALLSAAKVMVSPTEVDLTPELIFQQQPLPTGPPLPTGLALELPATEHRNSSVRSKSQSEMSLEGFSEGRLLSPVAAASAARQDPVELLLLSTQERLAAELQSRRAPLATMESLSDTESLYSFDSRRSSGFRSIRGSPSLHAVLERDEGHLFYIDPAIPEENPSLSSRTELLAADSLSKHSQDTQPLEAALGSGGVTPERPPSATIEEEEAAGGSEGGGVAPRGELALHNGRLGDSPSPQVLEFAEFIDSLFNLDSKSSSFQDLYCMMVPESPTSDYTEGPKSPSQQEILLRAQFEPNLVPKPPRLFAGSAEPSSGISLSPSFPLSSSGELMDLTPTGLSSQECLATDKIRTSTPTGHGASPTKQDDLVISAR
experiment description: Inhibition of mouse DAGL-alpha expressed in HEK293T cell membranes assessed as inactivation constant pre-incubated for 20 mins before PNP-butyrate substrate addition and measured after 30 mins by surrogate substrate assay
Format: cell-based
# unit: min⁻¹ | format: bare number

{"columns": ["compound", "property name", "unit name", "result"],
 "data": [
  ["O=C(N1CCCC[C@@H]1Cc1ccccc1)n1ccc(C(O)(c2ccc(F)cc2)c2ccc(F)cc2)n1", "Kinact", "min⁻¹", 0.08]
]}

Request: Look at this compound and give its reported Kinact. `O=C(N1CCCC[C@@H]1Cc1ccccc1)n1cnc(C(O)(c2ccc(F)cc2)c2ccc(F)cc2)n1`
Result: 0.075

Request: Find the recorded Kinact belonging to `O=C(N1CCCC[C@@H]1Cc1ccccc1)n1cc(C(O)(c2ccc(F)cc2)c2ccc(F)cc2)nn1` and report it.
Result: 0.32

Request: Form field: reported Kinact of O=C(N1CCCCC1Cc1ccccc1)n1cc(-c2ccc(-c3ccccc3)cc2)nn1 (stereo not given)
Result: 0.08

Request: For the compound `O=C(N1CCCC[C@@H]1Cc1ccccc1)n1ncc(C(O)(c2ccc(F)cc2)c2ccc(F)cc2)n1` , what Kinact is on record?
Result: 0.22

---

measured target: Diacylglycerol lipase-alpha (Mus musculus)
Sequence (Q6WQJ1 whole entry): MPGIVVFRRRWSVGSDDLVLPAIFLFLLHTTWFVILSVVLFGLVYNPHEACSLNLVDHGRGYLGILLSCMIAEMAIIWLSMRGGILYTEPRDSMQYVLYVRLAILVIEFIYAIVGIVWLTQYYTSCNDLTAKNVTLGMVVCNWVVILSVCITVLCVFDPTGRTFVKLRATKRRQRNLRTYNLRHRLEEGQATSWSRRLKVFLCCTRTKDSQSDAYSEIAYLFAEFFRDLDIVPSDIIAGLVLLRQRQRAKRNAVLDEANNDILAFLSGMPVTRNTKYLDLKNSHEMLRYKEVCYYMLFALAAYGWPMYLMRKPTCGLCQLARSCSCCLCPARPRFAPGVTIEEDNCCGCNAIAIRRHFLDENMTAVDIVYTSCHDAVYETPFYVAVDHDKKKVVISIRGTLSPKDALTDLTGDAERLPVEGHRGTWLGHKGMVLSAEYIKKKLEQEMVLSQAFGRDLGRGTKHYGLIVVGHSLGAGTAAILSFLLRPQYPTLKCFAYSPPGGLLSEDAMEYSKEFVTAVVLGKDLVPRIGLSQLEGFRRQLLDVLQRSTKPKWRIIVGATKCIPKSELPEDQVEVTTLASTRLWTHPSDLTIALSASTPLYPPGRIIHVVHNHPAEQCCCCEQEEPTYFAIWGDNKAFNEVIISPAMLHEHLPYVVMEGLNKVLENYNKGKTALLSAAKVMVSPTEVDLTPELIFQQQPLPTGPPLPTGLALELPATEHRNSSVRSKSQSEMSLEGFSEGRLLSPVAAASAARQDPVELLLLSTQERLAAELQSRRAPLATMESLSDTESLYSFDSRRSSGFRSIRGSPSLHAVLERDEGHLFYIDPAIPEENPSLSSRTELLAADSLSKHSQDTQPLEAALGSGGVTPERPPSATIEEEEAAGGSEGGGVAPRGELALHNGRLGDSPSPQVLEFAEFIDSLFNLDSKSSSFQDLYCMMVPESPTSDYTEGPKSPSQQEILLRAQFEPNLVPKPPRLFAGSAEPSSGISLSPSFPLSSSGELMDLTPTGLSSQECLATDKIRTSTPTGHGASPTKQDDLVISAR
experiment description: Inhibition of mouse DAGL-alpha expressed in HEK293T cell membranes pre-incubated for 20 mins before PNP-butyrate substrate addition and measured after 30 mins by surrogate substrate assay
Assay type: cell-based
condition label: read-out: pIC50 (converted)
property name: IC50 (nM)
# unit: nM | format: bare number

{"columns": ["chemical smiles", "IC50, nM"],
 "data": [
  ["O=C(N1CCCC[C@@H]1Cc1ccccc1)n1cc(C(O)(c2ccc(F)cc2)c2ccc(F)cc2)nn1", 3.8]
]}

Request: For `Cc1ccc(-c2cnc3nc(C(=O)CCCCCc4ccccc4)oc3c2)cc1` , what is its reported IC50?
Result: 2.51

Request: Param item = `O=C(N1CCCC[C@@H]1Cc1ccccc1)n1ncc(C(O)(c2ccc(F)cc2)c2ccc(F)cc2)n1` ; retrieve measured IC50.
Result: 3.02
